molecular target: T1, SARS-CoV-2 Spike RBD K417N (SARS-CoV-2, UniProt P0DTC2 319-541); assay: HTRF, soluble RBD construct
T1 construct: domain: RBD
fold over background by entry:
Write the answer as a number in fold over background, unit excluded.

PR194_00232 (antibody, V domains shown, also called IMM20190; PR194_00190) VH: EVQLVESGGGLVQPGGSLRLSCSASGFTVSSNYMSWVRQAPRKGLEWVSVIYAGGSTFYADSVKGRFTISRDNSKNTLLLQMNSLRAEDTAVYYCARDRGGYLDYWGQGTLVTVSS VL: DIQMTQSPSSLSASVGDRVTITCRASQGISNYLAWYQQKPGKVPKLLIYAASTLQSGVPSRFSGSGSGTDFTLTISSLQPEDVATYYCQKYNSAPGLTFGGGTKVEIK	2.25
PR199_00255 (antibody, V domains shown, also called IMM20279; PR190_00255) VH: QVQLVESGGGVVQPGRSLRLSCAASGFTFSTYGMHWVRQAPGKGLEWVAVIWYNGINKHYADSVKGRFTISRDNSKNTLYLQMSSLRVEDTAVYYCARDWGTLTTLFDFWGQGTLVTVSS VL: DIQMTQSPSSLSASVGERATITCRASQSISSHLNWYQQKPGKAPKFLIYGASSLQSGVPSRFSGSGSGTDFTLTISSLQPEDFATYYCQQSYSTPPWTFGQGTKVEIK	7.29
PR194_00292 (antibody, V domains shown) VH: QVQLQQWGAGLLKPSETLSLTCAVYGGSLSGYYWSWIRQPPGKGLEWIGEINHSGSTNHNPSLKSRVSISVDTSKNQFSLKLSSVTAADTAVYYCARAWKYSSSWYSGGIYYGMDVWGQGTTVTVSS VL: QSALTQPASVSGSPGQSITISCSGTSSDVGSYNLVSWYQQHPGKAPKLMIYEGTKRPSGVSNRFSSSKSGNTASLTISGLQAEDEADYYCCSYAGFSTWVFGGGTKLTVL	1.03

fold over background reading for PR193_00018 (antibody, V domains shown, also called IMM20184; IMM200184) VH: EVQLVESGGGLVQPGGSLRLSCSASGFTFSSFWMSWVRQAPGKGLEWVATIREDGSEKYYVDSVKGRFSISRDNAKNSLYLQMNSLRAEDTAVYYCARSKWLRGSFDYWGQGTLVTVSS VL: NFMLTQPHSVSESPGKTVTISCTRRSGSIASNYVQWYQQRPGSAPTTVIYEDNQRPSGVPDRFSGSIDSSSNSASLTISGLQTEDEADYYCQSYDSSNPPGASWVFGGGTKLTVL : 3.64
